# Assay Explanation: HepG2 liver cancer cell viability effects, profiling panel, resazurin fluorescence, 24 h, PK04 Diversity Set (AID 1172)
# Measurement Setup: higher = more signal
Quantity: z-score

• COC(=O)[C@H](C)NC(=O)CCC1CC(OC(=O)NCc2cccc3ccccc23)CC2(CCCC(COC(=O)NCC(c3ccccc3)c3ccccc3)O2)O1 (stereo not given in full) = 1.64
• CC(CCN1CCCc2nc(C)c(C)cc21)=NO[C@@H](C)c1cc(-c2c(C)cc(C)cc2C)no1 = -0.616
• CCN1C(=O)[C@H]2[C@H]3[C@H](O)[C@H](O)CC(=NNC(=O)OCc4ccc(OC)cc4)[C@@H]3CC[C@H]2C1=O = -0.295
• CC=CC1=C(CO)C(=O)[C@@H]2O[C@@H]2C1=O = -0.714
• COC(=O)CC=C[C@@H](C)[C@@H](C=NO[C@@H]1O[C@H](COC(C)=O)[C@@H](OC(C)=O)[C@H](OC(C)=O)[C@H]1OC(C)=O)OC = 0.992
• CCN1C(=O)[C@H]2[C@H]3[C@H](O)[C@H](O)CC(=NOC[C@H]4O[C@H](c5ccccc5)C=C[C@@H]4Oc4ccc(OC)cc4)[C@@H]3CC[C@H]2C1=O = -0.985
• CCOC(=O)NN=C1C[C@@H](O)[C@@H](O)[C@@H]2[C@@H]3C(=O)N([C@@H](C)c4ccccc4)C(=O)[C@@H]3CC[C@@H]12 = 0.13
• COC(=O)NCC=Cc1nc(CCCO)co1 = -0.0091
• COc1cccc([C@H]2Oc3ccc(OC)cc3C(=NOC[C@@H](O)COCc3ccco3)[C@@H]2O)c1 = -0.949
• C=COC[C@@H]1CN2[C@@H](CC[C@@H](C)[C@@H]2c2ccc(Br)cc2)C(=O)O1 = -0.32
• C[C@@H](c1ccccc1)N1C(=O)[C@H]2[C@H]3[C@H](O)[C@H](O)CC(=NO[C@@H]4O[C@H](CO)[C@@H](O)[C@H](O)[C@H]4O)[C@@H]3CC[C@H]2C1=O = -0.416
• CCOC(=O)NN=C1C[C@@H](O)[C@@H](O)[C@@H]2[C@@H]3C(=O)N(Cc4ccccc4)C(=O)[C@@H]3CC[C@H]12 = 1.16
• CCC(=O)[C@@]1(O)C(=O)N2C(=C3C(=O)OCC[C@@H]31)N(Cc1ccccc1)C(C)=C(C(=O)OC)[C@H]2c1ccccc1 = -0.207
• CCOC(=O)[C@H](Cc1ccccc1)NC(=O)CCC1CC(OC(=O)NCCc2ccc(F)cc2)CC2(CCCC(COC(=O)NCCc3ccc(Cl)cc3)O2)O1 (stereo not given in full) = 0.072
• C=Cc1ccc([C@H]2N[C@H](C(=O)O)CC[C@@H]2C)cc1 = -0.869

---

Quick reference: z-score of the listed items.
# Assay Explanation: mitochondrial membrane potential change in A549 cells, profiling panel, cell-based, JC-1 fluorescence, basal, 24 h, 100 nL (AID 1138);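 also: A549 lung adenocarcinoma cells under basal conditions with no added stimulus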
# Measurement Setup: higher = more signal
Quantity: z-score

• O=C1OCCC=C1C(O)CCc1ccccc1 (stereo not given) = -0.602
• C[C@H]1CC[C@H]2C(=O)O[C@H](COc3ccc(C(C)(C)C)cc3)CN2[C@@H]1c1ccc(Br)cc1 = 0.972
• CO[C@H]1COC(=O)[C@@H](C)COC(=O)[C@@H](OCc2ccccc2)C=C[C@@H]1C = 0.651
• Cc1ccc(S(=O)(=O)OC[C@H]2CN3[C@H](c4ccc(Br)cc4)[C@@H](C)CC[C@H]3C(=O)O2)cc1 = 1.78
• CCc1cc2c(nc1CC)CCN(CCC(C)=NO[C@H](C)c1cn([C@@H]3COC[C@H]3O)nn1)C2 = 0.537

---

# Test system: XIP peptide (Xip251-270) binding
# Assay Explanation: small-molecule binders of XIP peptide, primary screen, biochemical, small-molecule microarray, fluorescence 635/667 nm, 0.1 µg/mL protein (AID 1182)
# Measurement Setup: fluorescent protein binding, 635 nm, higher = more signal, called active from +8 up or from −8 down
Quick reference: composite z-score of the listed items.
Quantity: composite z-score

- CCOC(=O)[C@H](CC(C)C)NC(=O)CCC1CC(OC(=O)NCc2cccc3ccccc23)CC2(CCCC(COC(=O)NCCc3ccc(Cl)cc3)O2)O1 (stereo not given in full): -0.0551
- COc1cccc([C@H]2Oc3ccc(OC)cc3C(=NO[C@@H]3O[C@H](COC(C)=O)[C@@H](OC(C)=O)[C@H](OC(C)=O)[C@H]3OC(C)=O)[C@@H]2O)c1: -0.481
- CCN1C(=O)[C@H]2[C@H]3[C@H](O)[C@H](O)CC(=O)[C@@H]3CC[C@H]2C1=O: 0.221
- CCCCc1nc2c(c3c1C[C@H](C)OC3)CN(CCOc1ccccc1)CC2: 1.4
- COc1cccc([C@H]2Oc3ccc(OC)cc3C(=NOC[C@@H](O)COCc3ccco3)[C@@H]2O)c1: 0.252
- O=C1[C@H]2[C@H]3[C@H](O)[C@H](O)CC(=NOCc4ccccc4)[C@H]3CC[C@H]2C(=O)N1Cc1ccc2c(c1)OCO2: -0.4
- CCOC(=O)C1=NO[C@]2(C=C(Br)C3(OCCCO3)[C@H]3O[C@H]32)C1: -0.788
- COC(=O)CC=C[C@@H](C)[C@@H](C=NO[C@@H](C)c1cn([C@H](CO)Cc2ccccc2)nn1)OC: -0.179
- CON=CC[C@@H]1C=C[C@H](OC(C)=O)[C@@H](COC(C)=O)O1: 0.726
- CO[C@@H]1C=CCC(=O)N2CCC[C@H]2C(=O)OC[C@@H](C)C(=O)OC[C@H]1C: 0.229
- O=C1[C@H]2[C@H]3[C@H](O)[C@H](O)CC(=NO[C@@H]4O[C@H](CO)[C@@H](O)[C@H](O)[C@H]4O)[C@H]3CC[C@H]2C(=O)N1c1cccc(Oc2ccccc2)c1: -0.373
- CCN1C(=O)[C@H]2[C@H]3[C@H](O)[C@H](O)CC(=NO[C@@H](C)c4cn([C@H](CO)Cc5ccccc5)nn4)[C@@H]3CC[C@H]2C1=O: 1.13
- C[C@@H]1C=CCC(=O)OC[C@H]2O[C@@H](C=C[C@@H]2O)[C@H](C)C=CCC(=O)OC1: 1
- COC(=O)[C@H](C)NC(=O)CCC1CC(OC(=O)NCc2ccc3c(c2)OCO3)CC2(CCCC(COC(=O)NCc3cccc(C(F)(F)F)c3)O2)O1 (stereo not given in full): 0.2
- C#CCCCON=C1[C@H]2CCn3c(=O)n(-c4ccccc4)c(=O)n3[C@H]2[C@H](O)[C@@H]2O[C@H]12: 0.245

---

# Assay Explanation: HepG2 liver cancer cell viability effects, profiling panel, resazurin fluorescence, 24 h, PK04 Diversity Set (AID 1172)
# Measurement Setup: higher = more signal
Quantity: z-score

* O=C(NN=C1C[C@@H](O)[C@@H](O)[C@@H]2[C@@H]3C(=O)N(C4CCCCC4)C(=O)[C@@H]3CC[C@H]12)OCc1ccccc1 | -0.383
* COC(=O)CC=C[C@@H](C)[C@@H](C=NO[C@@H](C)c1cc(-c2c(C)cc(C)cc2C)no1)NS(=O)(=O)c1ccc(C)cc1 | 0.245
* COc1ccc(O[C@@H]2[C@H](O)CO[C@@H]2C=Cc2ccccc2)cc1 | -0.489
* C[C@@H](c1ccccc1)N1C(=O)[C@H]2[C@H]3[C@H](O)[C@H](O)CC(=NO[C@@H]4O[C@H](CO)[C@@H](O)[C@H](O)[C@H]4O)[C@H]3CC[C@H]2C1=O | -0.495

---

# Assay Explanation: fission yeast growth modulation, primary screen, strain 972, OD600, 24 h, no modulator (AID 1090);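 also: basal condition with compound alone and no growth modifier present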
# Measurement Setup: S. pombe 972 growth, called active from +8 up or from −8 down
Calls of active or inactive are those of the source.
Outcome codes: active, inactive

* C=COC[C@@H]1CN2[C@@H](CC[C@@H](C)[C@@H]2c2ccc(Br)cc2)C(=O)O1 | active
* CC(=O)OC[C@H]1OC(ON=CC[C@@H]2C=C[C@H](OC(C)=O)[C@@H](COC(C)=O)O2)[C@H](OC(C)=O)[C@@H](OC(C)=O)[C@@H]1OC(C)=O (some centres undefined) | inactive
* CC(C)=NO[C@H](C)c1cn([C@H](CO)Cc2ccccc2)nn1 | inactive
* CCOC(=O)[C@H](Cc1ccccc1)NC(=O)CCC1CC(OC(=O)NCc2cccc3ccccc23)CC2(CCCC(COC(=O)NCc3cccc(C(F)(F)F)c3)O2)O1 (some centres undefined) | inactive
* CCOC(=O)[C@H](Cc1ccccc1)NC(=O)CCC1CC(OC(=O)NCc2cccc3ccccc23)CC2(CCCC(COC(=O)NCC(c3ccccc3)c3ccccc3)O2)O1 (some centres undefined) | inactive
* CCCNC(=O)OC[C@H]1O[C@H](CCON=Cc2ccc(C(=O)N3[C@H](c4ccc(C)cc4)[C@@H](C)CC[C@H]3C(=O)OC)cc2)C=C[C@@H]1Oc1ccc(OC)cc1 | inactive
* COCCNC(=O)OCC1CCCC2(CC(OC(=O)NCc3ccc4c(c3)OCO4)CC(CCC(=O)N[C@@H](C)C(=O)OC)O2)O1 (some centres undefined) | inactive
* CC(CCN1CCCCc2nc(C)c(C)cc21)=NOC[C@@H](O)COCc1ccco1 | inactive
* C#CCCCON=C1C[C@@H](O)[C@@H](O)[C@@H]2[C@@H]3C(=O)N(C(C)(C)C)C(=O)[C@@H]3CC[C@H]12 | inactive
* CC(CCN1CCCc2nc(C)c(C)cc21)=NOC(C)CN1CCCCc2nc(C)c(C)cc21 (centres undefined) | inactive
* COc1ccc(COC(=O)NN=C2C[C@@H](O)[C@@H](O)[C@@H]3[C@@H]4C(=O)N(c5cccc(Oc6ccccc6)c5)C(=O)[C@@H]4CC[C@@H]23)cc1 | inactive
* CCOC(=O)NN=C1C[C@@H](O)[C@@H](O)[C@@H]2[C@@H]3C(=O)N(c4cccc(Oc5ccccc5)c4)C(=O)[C@@H]3CC[C@H]12 | inactive
* COC(=O)[C@H]1[C@@H](O)[C@@]2(O)c3ccccc3O[C@@]2(c2ccccc2)[C@@H]1c1ccccc1 | inactive
* COc1cccc([C@@H]2Oc3ccc(OC)cc3C(=O)[C@H]2O)c1 | inactive
* CO[C@H]1COC(=O)CC=C[C@H](C)[C@@H](OC)COC(=O)[C@@H](C)COC(=O)CC=C[C@@H]1C | inactive
* CCOC(=O)[C@H](CC(C)C)NC(=O)CCC1CC(OC(=O)NCc2ccc3c(c2)OCO3)CC2(CCCC(COC(=O)NCCCN3CCCC3=O)O2)O1 (some centres undefined) | inactive
* CC(C)CCN1CCc2nc(COc3ccccc3)c3c(c2C1)CO[C@@H](C)C3 | inactive
* CCOC(=O)NN=C1C[C@@H](O)[C@@H](O)[C@@H]2[C@@H]3C(=O)N(c4ccc(F)cc4F)C(=O)[C@@H]3CC[C@@H]12 | inactive
* CCOC(=O)[C@H](CC(C)C)NC(=O)CCC1CC(OC(=O)NCc2cccc3ccccc23)CC2(CCCC(COC(=O)NCCCN3CCCC3=O)O2)O1 (some centres undefined) | inactive
* COC(=O)[C@@H]1CC[C@H](C)[C@@H](c2ccc(C)cc2)N1C(=O)c1ccc(C=NO[C@H](C)c2cn([C@@H]3COC[C@H]3O)nn2)cc1 | inactive
* COC(=O)CC=C[C@@H](C)[C@@H](C=NO[C@@H](C)c1cn([C@H](CO)Cc2ccccc2)nn1)OC | inactive
* CCOC(=O)[C@H](CC(C)C)NC(=O)CCC1CC(OC(=O)NCc2cccc3ccccc23)CC2(CCCC(COC(=O)NCCC(C)C)O2)O1 (some centres undefined) | inactive
* O=C1[C@H]2[C@H]3[C@H](O)[C@H](O)CC(=NOC[C@@H](O)COCc4ccco4)[C@@H]3CC[C@H]2C(=O)N1C[C@@H]1CCCO1 | inactive
* COC(=O)CC=C[C@@H](C)[C@@H](C=NO[C@H](C)c1cn([C@H](CO)Cc2ccccc2)nn1)NS(=O)(=O)c1ccc(C)cc1 | inactive
* CCN1C(=O)[C@H]2[C@H]3[C@H](O)[C@H](O)CC(=NNC(=O)OCc4ccc(OC)cc4)[C@@H]3CC[C@H]2C1=O | inactive
* CO[C@H]1COC(=O)[C@H](C)NC(=O)[C@@H](C)COC(=O)[C@H]2CCCN2C(=O)CC=C[C@H]1C | inactive
* COc1ccc(O[C@H]2C=C[C@@H](c3ccccc3)O[C@@H]2COC(=O)CCC(C)=NO[C@@H]2O[C@H](COC(C)=O)[C@@H](OC(C)=O)[C@H](OC(C)=O)[C@H]2OC(C)=O)cc1 | inactive
* CON=CC[C@@H]1C=C[C@H](OC(C)=O)[C@@H](COC(C)=O)O1 | inactive
* O=C(NN=C1C[C@@H](O)[C@@H](O)[C@@H]2[C@@H]3C(=O)N(Cc4ccccc4)C(=O)[C@@H]3CC[C@@H]12)OCc1ccccc1 | inactive
